// values below are reported melting point
propertyMeasured: melting point

compound: Cc1nn(-c2ccc(F)cc2)c(C)c1C(=O)O
resultValue: 219 to 221 °C
--
compound: OCCn1c(CSc2nnc(-c3ccc4c(c3)OCO4)o2)nc2ccc(Cl)cc21
resultValue: 202 to 204 °C
--
compound: COc1ccc(Br)cc1C(=O)CBr
resultValue: 92 to 94 °C
--
compound: O=Cc1c(Cl)nc2ccccn2c1=O
resultValue: 213 to 215 °C
--
compound: CN1C(=O)CCC(C(N)=O)C1c1ccc(C(F)(F)F)cc1 (stereo not drawn)
resultValue: 239 to 241 °C
--
compound: Cc1cc2nc(-c3cccc4ncccc34)[nH]c2cc1C
resultValue: 129 to 131 °C
--
compound: Cc1csc(Sc2ccc(N)cc2)n1
resultValue: 99 to 101 °C
--
compound: CSCCC(NC(=O)c1ccc(Cl)cc1Cl)C(=O)O (stereo not drawn)
resultValue: 79 to 81 °C
--
compound: NS(=O)(=O)c1c(Cl)cccc1Cl
resultValue: 176 to 178 °C
--
compound: CC(=O)c1sc(N)nc1-c1ccccc1
resultValue: 145 to 147 °C
--
compound: NC(=O)Nc1ccc(C(=O)O)cc1
resultValue: 296 to 298 °C
--
compound: C[C@H](NC(=O)C1CCCCC1)C(=O)O
resultValue: 127 to 129 °C
--
compound: Clc1ccc(CN2CCNCC2)cn1
resultValue: 89 to 91 °C
--
compound: O=C(O)Cc1ccco1
resultValue: 64 to 69 °C
--
compound: Nc1cc(=O)[nH]n1-c1ccccc1
resultValue: 109 to 111 °C
--
compound: NS(=O)(=O)c1ccc(N2CCC(C(=O)O)CC2)c([N+](=O)[O-])c1
resultValue: 181 to 183 °C
--
compound: CC(C)(C)C1CNC(=O)C1 (stereo not drawn)
resultValue: 130 to 132 °C
--
compound: CCN(CC)S(=O)(=O)c1ccc(N2CCOCC2)c(N)c1
resultValue: 94 to 96 °C
--
compound: OC(CC1CCCN1)c1cccs1 (stereo not drawn)
resultValue: 63 to 65 °C
--
compound: O=Cc1cscn1
resultValue: 61 to 63 °C
--
compound: O=C(O)c1ccc(OCC2CC2)nc1
resultValue: 156 to 158 °C
--
compound: CCC1(C)CCNC(=O)CC1 (stereo not drawn)
resultValue: 76 to 78 °C
--
compound: CC(C)c1ccc(C2(C(=O)O)CCCC2)cc1
resultValue: 153 to 155 °C
--
compound: O=C(O)C1CCN(c2ccc(Br)cn2)CC1
resultValue: 213 to 215 °C
--
compound: NC(=O)c1cn[nH]c1N
resultValue: 184 to 186 °C
--
compound: CC(C)NC(=O)Nc1ccc(O)c(C(=O)O)c1
resultValue: 192 to 194 °C
--
compound: C#CCN1C(=O)C(=O)c2cc(Br)ccc21
resultValue: 164 to 166 °C
--
compound: O=C(O)C=CSCc1ccco1
resultValue: 119 to 121 °C
